Origin of measurements: patent US20200354796A1

System: H1650
Assay: In vitro drug sensitivity test of cells, MTS method
Type: cell-based
Conditions: NCI-H1650, H1650 human lung cancer cells, culture time 72 h-216 h
pIC50: −log10 of the molar value. Structures can show the parent of a compound that is named as a salt.
readout type: pIC50

1. CC(=O)O[C@H]1C(=O)[C@@]2(C)[C@H]([C@H](OC(=O)c3ccccc3)[C@]3(O)C[C@H](OC(=O)[C@H](O)[C@@H](NC(=O)c4ccccc4)c4ccccc4)C(C)=C1C3(C)C)[C@]1(OC(C)=O)CO[C@@H]1C[C@@H]2O
2. O=C(c1cc(Cc2n[nH]c(=O)c3ccccc23)ccc1F)N1CCN(C(=O)C2CC2)CC1
3. CC[C@@]1(O)C(=O)OCc2c1cc1n(c2=O)Cc2cc3c(CN(C)C)c(O)ccc3nc2-1 [Topotecan, Topotecan hydrochloride hydrate]
Query block: Let's sort these by pIC50, smallest first. Go ahead? API: response body holds the labels in the requested order.
Result block: 2, 3, 1
(2: 4.12, 3: 6.90, 1: 8.18)

* * *

Test system: HCC1937
Assay: In vitro drug sensitivity test of cells, MTS method
Assay type: cell-based
Conditions: HCC1937 human breast cancer cells, culture time 72 h-216 h
pIC50: −log10 of the molar value. Counter-ions that a name gives are not always drawn.
readout type: pIC50

Query block: I have this compound here, N.N.[Cl][Pt][Cl] [Cisplatin, cis-diaminedichloroplatinum(II)] , and I need its recorded pIC50.
Result block: 6.59

I. CC(=O)O[C@H]1C(=O)[C@@]2(C)[C@H]([C@H](OC(=O)c3ccccc3)[C@]3(O)C[C@H](OC(=O)[C@H](O)[C@@H](NC(=O)c4ccccc4)c4ccccc4)C(C)=C1C3(C)C)[C@]1(OC(C)=O)CO[C@@H]1C[C@@H]2O
II. O=C(c1cc(Cc2n[nH]c(=O)c3ccccc23)ccc1F)N1CCN(C(=O)C2CC2)CC1
III. CC[C@@]1(O)C(=O)OCc2c1cc1n(c2=O)Cc2cc3c(CN(C)C)c(O)ccc3nc2-1 [Topotecan, Topotecan hydrochloride hydrate]
Query block: Please list these in order of increasing pIC50. Thank you! API: response body holds the labels in the requested order.
Result block: II, III, I

* * *

Tested on: MCF-7
Assay: In vitro drug sensitivity test of cells, MTS method
Assay type: cell-based
Conditions: MCF-7 human breast cancer cells, culture time 72 h-216 h
From the text: […]
readout type: IC50 (nM)
Field format: number, assumed nM, no unit text.

Query block: Item: N.N.[Cl][Pt][Cl] [Cisplatin, cis-diaminedichloroplatinum(II)] Test system: MCF-7 Read-out: IC50 Value: ?
Result block: 894

* * *

Collected IC50 values appear next to each entry.
Tested on: Capan-1
Assay: In vitro drug sensitivity test of cells, MTS method
Assay type: cell-based
Settings: Capan-1 human pancreatic cancer cells, culture time 72 h-216 h
Counter-ions that a name gives are not always drawn.
Field format: number, assumed µM, no unit text.

Example cases with answers are listed next.
Query block: I have this compound here, CC(=O)O[C@H]1C(=O)[C@@]2(C)[C@H]([C@H](OC(=O)c3ccccc3)[C@]3(O)C[C@H](OC(=O)[C@H](O)[C@@H](NC(=O)c4ccccc4)c4ccccc4)C(C)=C1C3(C)C)[C@]1(OC(C)=O)CO[C@@H]1C[C@@H]2O [Paclitaxel] , and I need its recorded IC50.
Result block: 0.00699

Query block: // query: O=C(c1cc(Cc2n[nH]c(=O)c3ccccc23)ccc1F)N1CCN(C(=O)C2CC2)CC1 [Olaparib]
Result block: 2.57

Query block: // query: CC[C@@]1(O)C(=O)OCc2c1cc1n(c2=O)Cc2cc3c(CN(C)C)c(O)ccc3nc2-1 [Topotecan, Topotecan hydrochloride hydrate]
Result block: 0.0158

Here is the next item to consider.
Query block: I have this compound here, N.N.[Cl][Pt][Cl] [Cisplatin, cis-diaminedichloroplatinum(II)] , and I need its recorded IC50.
Result block: 0.214
